FYI, the data here is from PubChem BioAssay (NCI).

# System: SF-295 CNS
# measurementProtocol: NCI tumour cell line growth inhibition, 48 h
observable: TGI

COc1cc(C(=O)N[C@@H]2CCCN(C)C2)ccc1Nc1ncc2c(n1)N(C1CCCC1)CC(C)(C)C(=O)N2C	3.56 µM

# return TGI for each item in the list
1. COc1ncc(-c2ccc3nc(N)n(-c4ccccc4C(F)(F)F)c(=O)c3c2)cc1S(=O)(=O)Nc1ccc(F)cc1F
2. COc1ccc(CCN2C(=O)C(=O)C(C(=O)c3ccccc3)C2c2ccccc2)cc1OC (centres undefined)

[A]
["17.5 µM", "> 100 µM"]

Could I get TGI for every one of these entries?
1. CC(=O)OCCn1c(Cc2ccc(Cl)cc2)nn(C(C)=O)c1=O
2. O=c1[nH]nc(Nc2ccc(Cl)cc2)c2nnn(-c3ccc([N+](=O)[O-])cc3)c12
3. CN1CN(c2ccccc2)C2(CCN(CCCN(C)c3ccc(F)cc3)CC2)C1=O
4. CC(=O)C1=C(C)N2C(=NC3=C(CCc4ccccc43)C2c2ccc(Cl)cc2)S1 (centres undefined)
5. O=c1ccn([C@@H]2C[C@H](CO)CS(=O)C2)c(=O)[nH]1 (some centres undefined)
6. C=CC(C)(C)[C@@]12CC3C(=O)N[C@@H](Cc4ccccc4)C(=O)N3[C@@H]1N(C(C)=O)c1ccccc12 (some centres undefined)

[A]
["> 100 µM", "> 100 µM", "28.3 µM", "> 100 µM", "> 100 µM", "> 100 µM"]

###

# System: COLO 205 colon
# measurementProtocol: NCI tumour cell line growth inhibition, 48 h
Please respond with reported TGI for every item in the list.
Numbers only, in µM.

// worked examples, TGI included
O=C1C(=C2C(=O)c3ccccc3[N+]2=O)N([O-])c2ccccc21	33
CCn1c(O)c(C(=O)Nc2cccs2)c(=O)n(CC)c1=S	32.2
CN(C)CCCn1c2c(c3ccc(N4CCNCC4)cc3c1=O)C(=O)c1ccccc1-2	2.28
CC(C)c1cc(C(C)C)c(S(=O)(=O)N/N=C2\CC3CCC2(C)C3(C)C)c(C(C)C)c1 (configuration not stated)	79.3
CCCCCCCCCCCCCCCCCCCCCCC(=O)N[C@H]1CCc2cc(OC)c(OC)c(OC)c2-c2ccc(SC)c(=O)cc21	31.9

Moving on to another compound below.
Recorded TGI (compound `CCN(CC)c1ccc(C=C2C(=O)NC(=S)NC2=O)cc1` ): 6.62

###

# System: CAKI-1 renal
# measurementProtocol: NCI tumour cell line growth inhibition, 48 h
observable: TGI

Below: 8 compounds and their reported TGI.
C(#C[C@@]12CCC[C@@H]1NCO2)c1ccc2c(c1)OCO2	> 100 µM
NS(=O)(=O)c1ccc(NCc2cccc3c(=O)c4ccc(Cl)cc4oc23)cc1	> 85.7 µM
CC(=O)Nc1ccc(/C=C/C(=O)c2sc(-n3nc(-c4ccccc4)cc3-c3ccccc3)nc2C)cc1	> 100 µM
CC1CC(=O)C(CC(=O)O)[C@H]1C(C(=O)C(=O)Nc1cc(Cl)ccc1Cl)[N+](=O)[O-] (stereo partly specified)	> 100 µM
O=c1[nH]c2ccccc2c(=O)c2cc3ccccc3cc12	45.5 µM
CCN(CC)CCCC(C)Nc1ccnc2cc(OC)ccc12 (stereo unspecified)	44.4 µM
C=C(C)[C@@H]1CC[C@]2(C(=O)OC)CC[C@]3(C)[C@H](CC[C@@H]4[C@@]5(C)CC/C(=N\OCCC(=NCCC#N)NOCCC#N)C(C)(C)[C@@H]5CC[C@]43C)[C@@H]12	> 50 µM
c1c[nH]c(CN2CCN(Cc3ncc[nH]3)CC2)n1	> 100 µM

Report TGI for every entry below.
1. COc1cc(/C=C(\C#N)C(=O)c2ccccc2)cc(OC)c1OC
2. CCOC(=O)n1c(=O)nc2c3c(ncn21)Oc1c(c(-c2ccccc2)nn1-c1ccccc1)C3c1ccc(Cl)cc1 (stereo unspecified)
3. O=C(NNC(=O)c1cc2ccccc2[nH]1)c1cc2ccccc2[nH]1
4. Nc1cc2c(C3OC(CO)C(O)C3O)[nH]nc2c(=S)[nH]1 (stereo unspecified)

[A]
> 100 µM
2.96 µM
> 100 µM
> 100 µM

Would you mind listing TGI for each of the following compounds?
1. O=C(O)c1ccc2nc(-c3ccccn3)c(-c3ccccn3)nc2c1
2. CC(=O)OCC1OC(NC(=S)Nn2c(-c3ccccc3)nc3ccccc3c2=O)C(OC(C)=O)C(OC(C)=O)C1OC(C)=O (stereo unspecified)
3. N/C(=N\O)c1cn(C2OC(CO)C(O)C2O)c2ncnc(N)c12 (stereo unspecified)
4. NS(=O)(=O)c1ccc(NNc2c3ccccc3nc3c(C(=O)Nc4ccc(S(N)(=O)=O)cc4)cccc23)cc1

[A]
1: > 100 µM; 2: > 100 µM; 3: 13.1 µM; 4: > 100 µM

I need TGI for every entry listed below, if you could help.
1. Cc1c(S(=O)(=O)/N=C(\NO)Nc2ccc(Cl)cc2)sc2ccc(Cl)cc12
2. CC(=O)C1=C(C)N2C(=NC3=C(CCc4ccccc43)C2c2ccc(Cl)cc2)S1 (stereo unspecified)
3. COc1ccc2c(c1)OCC1c3cc(OC)ccc3OC21 (stereo unspecified)
4. N#CSc1c[nH]c2cccc(/C=C/C(=O)/C=C(O)/C=C/c3cccc4[nH]cc(SC#N)c34)c12
5. CCCCCCCCCCCCNC(=O)N[C@H](C(=O)N[C@H]1/C=C/OCCNC(=O)/C=C/[C@H](C(C)C)NC1=O)C(C)C

[A]
1: 34.3 µM; 2: > 100 µM; 3: > 100 µM; 4: 1.56 µM; 5: > 100 µM

Each of the following entries comes with a recorded value; kindly state TGI for each.
1. CC/C(=C\c1ccc(N(C)C)cc1)c1ccncc1
2. N=C(N)c1ccc(-c2ccc(-c3cccs3)s2)cc1F
3. CCn1c(O)c(C(=O)Nc2cccs2)c(=O)n(CC)c1=S

[A]
> 100 µM
2.82 µM
75.9 µM
